System: NCI-H226
measurement notes: NCI tumour cell line growth inhibition, 48 h
Calls of active or inactive are those of the source. Cut-off read from the data, not from the text of the source: active = GI50 up to about 1.1 µM and inactive = higher.
property label: GI50

# example entries with known answers
{"columns": ["compound", "GI50"],
 "data": [
  ["ClCC[N+]12CC[N+](CCCl)(CC1)C2", "> 100 µM (inactive)"],
  ["COC1CC(C)(N)C(O)C(C)O1 (stereo not drawn)", "> 100 µM (inactive)"],
  ["C[O+]=C1C=CC(=C2SC(c3ccccc3)(c3ccccc3)c3ccccc32)C=C1.[O-][Cl+3]([O-])([O-])[O-]", "14.5 µM (inactive)"],
  ["O=C1CC(CC(O)[C@@H]2CCCC[C@@H]2O)CC(=O)N1c1ccccc1 (stereo partly drawn)", "> 100 µM (inactive)"],
  ["Cc1ccc(/C=C2\\CN(C)CC3C2=NC(=S)NC3c2ccc(C)cc2)cc1 (stereo not drawn)", "> 100 µM (inactive)"],
  ["CC(NC(=O)C(N)CC(=O)O)NC(=O)C1CCC1 (stereo not drawn)", "> 100 µM (inactive)"],
  ["O=C1/C(=C\\c2ccccc2)c2ccccc2N1Cc1ccccc1", "10.8 µM (inactive)"],
  ["COc1cc(C2S/C(=C/c3ccccc3)C(=O)N2c2cccc([N+](=O)[O-])c2)cc(OC)c1OC (stereo not drawn)", "> 100 µM (inactive)"]
]}

Dear colleague, could you please provide GI50 for the compounds listed below?
1. COc1ccc(OC)c(C2CCc3nc4nc(N)nc(N)c4cc3C2)c1 (stereo not drawn)
2. O=C1c2ccccc2-c2nnc(-c3ccc(Cl)cc3)cc21
3. CCC(C)[C@@H](NC1=C(Cl)C(=O)c2c(O)ccc(O)c2C1=O)C(=O)OC (stereo partly drawn)
4. O=S(=O)(SC1=NCCN1)c1cccc2ccccc12
5. O=C(Cc1ccccc1)c1ccc2[nH]c(=O)oc2c1

Result:
8.47 µM (inactive)
> 10 µM (inactive)
4.14 µM (inactive)
21.6 µM (inactive)
1.22 µM (inactive)

* * *

Test system: UACC-62
measurement notes: NCI tumour cell line growth inhibition, 48 h
Activity calls are given as the source filed them. No stated cut-off is given here; in the data, active = GI50 up to about 1.1 µM and inactive = higher.
Record form. Attribute: GI50. Fill in for each entry.

# example entries with known answers
{"columns": ["compound", "target under test", "GI50"],
 "data": [
  ["NC(CCCCNC(=O)C(Cc1ccccc1)NC(=O)OCc1ccccc1)C(=O)NC(CCCCNC(=O)C(Cc1ccccc1)NC(=O)OCc1ccccc1)C(=O)NC(CCCCNC(=O)C(Cc1ccccc1)NC(=O)OCc1ccccc1)C(=O)NC(CCCCNC(=O)C(Cc1ccccc1)NC(=O)OCc1ccccc1)C(=O)NC(CCCCNC(=O)C(Cc1ccccc1)NC(=O)OCc1ccccc1)C(=O)NC(CCCCNC(=O)C(Cc1ccccc1)NC(=O)OCc1ccccc1)C(=O)O (configuration not stated)", "UACC-62", "> 100 µM (inactive)"],
  ["O=S(=O)(SC1=NCCN1)c1cccc2ccccc12", "UACC-62", "34.4 µM (inactive)"],
  ["CCOC(=O)N/N=C(\\Cc1ccccc1)OCC", "UACC-62", "> 100 µM (inactive)"],
  ["CC(C)(C)c1ccc(OCCOCCOc2ccc(C(C)(C)C)cc2S(N)(=O)=O)c(S(N)(=O)=O)c1", "UACC-62", "52.1 µM (inactive)"],
  ["Cc1nc(-c2cc3c(ccc4ccccc43)oc2=O)cc2c1c(=O)oc1ccc3ccccc3c12", "UACC-62", "> 100 µM (inactive)"]
]}

Dear colleague, could you please provide GI50 for the compounds listed below?
1. Cc1ccc(NC(=O)SCCC(=O)O)cc1
2. CCN(CC)c1ccc(/C=C/c2ccnc3ccccc23)cc1

Result:
1. 45.7 µM (inactive)
2. > 100 µM (inactive)

* * *

Tested on: KM-20L2
measurement notes: NCI tumour cell line growth inhibition, 48 h
The source made the active and inactive calls. Rule as the data show it: active = GI50 up to about 1.1 µM and inactive = higher.
Assign a class; possible classes are 1.0 (active), 0.0 (inactive)

{"columns": ["compound", "class assignment"],
 "data": [
  ["Nc1ccc(Cn2ccc3c4c(N)nc(N)nc4ccc32)cc1", 1.0],
  ["C/C(=N\\NC(=O)C(N)=O)c1c(O)cc(C)oc1=O", 0.0],
  ["Cc1nn(-c2nc3ccccc3s2)c2c1C(=O)c1ccccc1-2", 0.0],
  ["COc1ccc(/C=C/c2cc(OC)c(O[Si](C)(C)C(C)(C)C)c(OC)c2)cc1", 0.0],
  ["CC[C@@H](C)[C@H]([C@H](CC(=O)N1CCC[C@@H]1[C@@H](OC)[C@H](C)C(=O)N[C@H](Cc1ccccc1)c1nccs1)OC)N(C)C(=O)[C@H](NC(=O)[C@@H](C(C)C)N(C)C)C(C)C", 1.0],
  ["NC1N=Nc2ccccc21 (stereo not given)", 0.0]
]}

Ask: How did this test come out for O=c1nc2n(c3nsnc13)CCO2 ?
Result: 0.0

Ask: How did this test come out for COc1ccc(S(=O)(=O)N/N=C/CN2C(=O)c3ccccc3C2=O)cc1OC ?
Result: 0.0

Ask: How did this test come out for COC(=O)N/N=C(/c1nc2ccc([N+](=O)[O-])cc2nc1O)C(O)c1ccc(OC)c(OC)c1 (stereo not given) ?
Result: 0.0

Ask: How did this test come out for O=C1C(c2ccccc2)=C(c2ccccc2)C(c2ccc(-c3ccc(C4=C(c5ccccc5)C(=O)C(c5ccccc5)=C4c4ccccc4)cc3)cc2)=C1c1ccccc1 ?
Result: 0.0

* * *

Tested on: SW-620
measurement notes: NCI tumour cell line growth inhibition, 48 h
Activity calls are given as the source filed them. Cut-off read from the data, not from the text of the source: active = GI50 up to about 1.1 µM and inactive = higher.
Assign a class; possible classes are 1.0 for active, 0.0 for inactive

Consider the worked cases shown below.
{"columns": ["compound", "target under test", "class assignment"],
 "data": [
  ["O=C(Cc1ccccc1)c1ccc2[nH]c(=O)oc2c1", "SW-620", 0.0],
  ["COc1cccc(/C=C2/Sc3scc(-c4ccccc4)[n+]3C2=O)c1O", "SW-620", 0.0],
  ["CN(C)CCNc1ccc2c(=O)n(CCN(C)C)c(=O)n3c4ccccc4c(=O)c1c23", "SW-620", 1.0]
]}

Ask: How did this test come out for CCCCCC(=O)N[C@@H](c1ccccc1)C(O)C(=O)OC1C[C@@]2(O)C(OC(=O)c3ccccc3)C3[C@](C)(C(=O)[C@H](O)C(=C1C)C2(C)C)C(OC1OCC(O)C(O)C1O)C[C@H]1OC[C@@]31OC(C)=O (some centres undefined) ?
Result: 0.0

* * *

Record form. Attribute: GI50. Fill in for each entry.
System: COLO 205
measurement notes: NCI tumour cell line growth inhibition, 48 h
Activity calls are given as the source filed them. No stated cut-off is given here; in the data, active = GI50 up to about 1.1 µM and inactive = higher.

# example entries with known answers
{"columns": ["compound", "experimental result"],
 "data": [
  ["COC[C@@H]1[C@H]2OC(C)(C)O[C@H]2C(=O)N1C(=O)c1ccc(OC)cc1", "> 100 µM (inactive)"],
  ["CC(C)(C)OC(=O)NC(Cc1ccc(O)cn1)C(N)=O (centres undefined)", "> 100 µM (inactive)"],
  ["Cc1cccc(/C=N/C23CC4CC(CC(C4)C2)C3)c1", "> 100 µM (inactive)"],
  ["OC/C=C/[C@H](OCc1ccccc1)[C@H](/C=C/CO)OCc1ccccc1", "59.3 µM (inactive)"],
  ["C#CCNC(CS)C(=O)O (centres undefined)", "> 100 µM (inactive)"]
]}

Dear colleague, could you please provide GI50 for the compounds listed below?
1. CN1CCOC(c2ccccc2)O1 (centres undefined)
2. CC(=O)N/N=C1\CC(C)(C)C2CCC1C2 (centres undefined)
3. Cc1cccc(-c2cc(=S)c3cc(N4CCCC4)ccc3[nH]2)c1
4. N#Cc1cnc(-n2[nH]c3c(c2=O)CCCC3)[nH]c1=O

Result:
> 100 µM (inactive)
> 100 µM (inactive)
> 100 µM (inactive)
38.5 µM (inactive)

* * *

Test system: SK-MEL-2
measurement notes: NCI tumour cell line growth inhibition, 48 h
Calls of active or inactive are those of the source. No stated cut-off is given here; in the data, active = GI50 up to about 1.1 µM and inactive = higher.
Assign a class; possible classes are active, inactive

Consider the worked cases shown below.
{"columns": ["compound", "class assignment"],
 "data": [
  ["O=c1nc2n(c3nsnc13)CCO2", "inactive"],
  ["CC[C@@H](C)[C@H]([C@H](CC(=O)N1CCC[C@@H]1[C@@H](OC)[C@H](C)C(=O)N[C@H](Cc1ccccc1)c1nccs1)OC)N(C)C(=O)[C@H](NC(=O)[C@@H](C(C)C)N(C)C)C(C)C", "active"],
  ["O=c1[nH]c(-c2ccc([N+](=O)[O-])cc2)nc2ccc(Cl)cc12", "inactive"],
  ["O=P(O)(Cc1ccccc1)c1ccccc1-c1ccccc1", "inactive"],
  ["Nc1nc2[nH]c(=O)cnc2c(=O)[nH]1", "inactive"]
]}

Ask: How did this test come out for CC(=O)N/N=C1\CC(C)(C)C2CCC1C2 (stereo not given) ?
Result: inactive

Ask: How did this test come out for CC(C)/C=C1\CCC(CN2CCOCC2)C1=O (stereo not given) ?
Result: inactive

Ask: How did this test come out for COc1cccc(C2=NC(C(C)C)CO2)c1 (stereo not given) ?
Result: inactive

Ask: How did this test come out for Oc1ccc(N=C2CCC(=C(c3ccccc3)c3ccc(Nc4ccc(O)cc4)cc3)CC2)cc1 ?
Result: inactive

Ask: How did this test come out for COc1ccc(/C=C/c2cc(OC)c(O[Si](C)(C)C(C)(C)C)c(OC)c2)cc1 ?
Result: inactive
